- Test system: DOHH2 cells (human B cell lymphoma cells)
- Test summary: Inhibition of proliferation of DOHH2 cells by CTG assay
- Format: cell-based
- Condition details: DOHH-2, compound 10 μM, 72 hours
# inhibition at 10 µM annotations
Enter your answer as a number in %; do not include the unit.

Field: example entries. Status: answers known.
>  <Molecule>
Nc1ncnc2c1c(-c1ccc(Oc3ccccc3)cc1)nn2C1CCCN(CCOCCOCCOCCNc2cccc3c2C(=O)N(C2CCC(=O)NC2=O)C3=O)C1 (centres unmarked) [Compound 15]

>  <U>
%

>  <inhibition at 10 µM>
99

$$$$
>  <Molecule>
Nc1ncnc2c1c(-c1ccc(Oc3ccccc3)cc1)nn2C1CCCN(CCOCCOCCOCCOc2cccc3c2C(=O)N(C2CCC(=O)NC2=O)C3=O)C1 (centres unmarked) [Compound 16]

>  <U>
%

>  <inhibition at 10 µM>
84

$$$$
>  <Molecule>
Nc1ncnc2c1c(-c1ccc(Oc3ccccc3)cc1)nn2C1CCCN(CCOCCOCCNc2cccc3c2C(=O)N(C2CCC(=O)NC2=O)C3=O)C1 (centres unmarked) [Compound 14]

>  <U>
%

>  <inhibition at 10 µM>
98

$$$$
>  <Molecule>
Nc1ncnc2c1c(-c1ccc(Oc3ccccc3)cc1)nn2[C@@H]1CCCN(CCCCCC(=O)Nc2cccc3c2C(=O)N(C2CCC(=O)NC2=O)C3=O)C1 (some centres unmarked) [Compound 3]

>  <U>
%

>  <inhibition at 10 µM>
87

$$$$

# context switch: different molecule, same inhibition at 10 µM
inhibition at 10 µM recorded for this molecule, Nc1ncnc2c1c(-c1ccc(Oc3ccccc3)cc1)nn2C1CCCN(CCOCCOCCOc2cccc3c2C(=O)N(C2CCC(=O)NC2=O)C3=O)C1 (centres unmarked) [Compound 7] , is 63

* * *

- Tgt: Btk (Homo sapiens)
- Sequence (Q06187 whole entry): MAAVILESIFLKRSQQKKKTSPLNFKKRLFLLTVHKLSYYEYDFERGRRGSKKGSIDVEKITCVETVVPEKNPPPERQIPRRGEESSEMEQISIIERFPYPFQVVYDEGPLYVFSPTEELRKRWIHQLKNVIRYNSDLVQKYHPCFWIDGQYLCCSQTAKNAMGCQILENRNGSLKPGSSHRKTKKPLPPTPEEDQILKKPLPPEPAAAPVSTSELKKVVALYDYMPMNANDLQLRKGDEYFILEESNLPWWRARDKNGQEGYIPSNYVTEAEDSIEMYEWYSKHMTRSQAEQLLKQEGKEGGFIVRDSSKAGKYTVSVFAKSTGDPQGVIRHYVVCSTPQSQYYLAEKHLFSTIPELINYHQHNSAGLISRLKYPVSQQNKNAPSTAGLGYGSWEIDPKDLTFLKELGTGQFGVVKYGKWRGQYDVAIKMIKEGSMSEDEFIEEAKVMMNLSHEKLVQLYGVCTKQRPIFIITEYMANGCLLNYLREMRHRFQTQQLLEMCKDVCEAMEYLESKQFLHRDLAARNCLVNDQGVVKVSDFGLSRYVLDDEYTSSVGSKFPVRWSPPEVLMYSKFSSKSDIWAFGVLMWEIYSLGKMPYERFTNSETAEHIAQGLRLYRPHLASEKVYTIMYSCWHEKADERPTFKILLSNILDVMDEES
- Test summary: Inhibition activity of compounds on Btk by Caliper assay
- Assay type: biochemical
- Condition details: compound 100 nM, Btk kinase
Result type: inhibition at 0.1 µM (%)
Enter your answer as a number in %; do not include the unit.

>  <Compound>
Nc1ncnc2c1c(-c1ccc(Oc3ccccc3)cc1)nn2C1CCCN(CCOCCOCCNc2cccc3c2C(=O)N(C2CCC(=O)NC2=O)C3=O)C1 (centres unmarked)

>  <Tgt>
Btk (Homo sapiens)

>  <U>
%

>  <inhibition at 0.1 µM>
99

$$$$
>  <Compound>
Nc1ncnc2c1c(-c1ccc(Oc3ccccc3)cc1)nn2C1CCCN(CCOCCOCCOc2cccc3c2C(=O)N(C2CCC(=O)NC2=O)C3=O)C1 (centres unmarked)

>  <Tgt>
Btk (Homo sapiens)

>  <U>
%

>  <inhibition at 0.1 µM>
99

$$$$

inhibition at 0.1 µM recorded for this compound, Nc1ncnc2c1c(-c1ccc(Oc3ccccc3)cc1)nn2C1CCCN(CCOCCOCCOCCNc2cccc3c2C(=O)N(C2CCC(=O)NC2=O)C3=O)C1 (centres unmarked) , is 98

inhibition at 0.1 µM recorded for this compound, Nc1ncnc2c1c(-c1ccc(Oc3ccccc3)cc1)nn2[C@@H]1CCCN(CCCCCC(=O)Nc2cccc3c2C(=O)N(C2CCC(=O)NC2=O)C3=O)C1 (some centres unmarked) , is 92

inhibition at 0.1 µM recorded for this compound, Nc1ncnc2c1c(-c1ccc(Oc3ccccc3)cc1)nn2C1CCCN(CCOCCOCCOCCOc2cccc3c2C(=O)N(C2CCC(=O)NC2=O)C3=O)C1 (centres unmarked) , is 95

All figures here come from patent US11155561B2.
